Source listed as ChEMBL document CHEMBL4665639.

Test system: Staphylococcus aureus
Assay: Antibacterial activity against methicillin-resistant Staphylococcus aureus assessed as bacterial growth inhibition after 24 hrs by CLSI protocol based broth microdilution assay
Type: functional
Listed below: MIC values for each entry.
Give just the numeric value; µg/mL need not be written.

Some molecules with known MIC results, for comparison:
[[record]]
structure_notation = "Oc1ccc(Cl)cc1CNc1cc(C(F)(F)F)ccc1Cl"
readout_type = "MIC"
measurement = 1

[[record]]
structure_notation = "Oc1c(Br)cc(Br)cc1CNc1cc(C(F)(F)F)ccc1Cl"
readout_type = "MIC"
measurement = 1


Problem: Which MIC is listed for `Oc1ccc(Br)cc1CNc1cc(C(F)(F)F)ccc1Cl` ?
Result: 1

* * *

Test system: Staphylococcus aureus
Assay: Inhibition of Staphylococcus aureus ATCC 6538 fabI expressed in Escherichia coli BL21 (DE3) assessed as oxidation of NADPH to NADP+ using trans-2-octenoyl CoA as substrate incubated for 2 hrs in presence of NADPH by spectrophotometric analysis
Calls of active or inactive are those of the source. No cut-off for these calls is given here.
readout-type: inhibition

[[record]]
structure_notation = "Oc1c(Br)cc(Br)cc1CNc1cccc(C(F)(F)F)c1"
measurement = "Active"

[[record]]
structure_notation = "Oc1ccc(Cl)cc1CNc1cc(C(F)(F)F)ccc1Cl"
measurement = "Active"

[[record]]
structure_notation = "Oc1c(Cl)cc(Cl)cc1CNc1cc(C(F)(F)F)ccc1Cl"
measurement = "Active"

[[record]]
structure_notation = "Oc1ccc(Br)cc1CNc1cc(C(F)(F)F)ccc1Cl"
measurement = "Active"

[[record]]
structure_notation = "Oc1c(Br)cc(Cl)cc1CNc1cc(C(F)(F)F)ccc1Cl"
measurement = "Active"


Problem: Which inhibition is listed for `Oc1c(Br)cc(Cl)cc1CNc1cccc(C(F)(F)F)c1` ?
Result: Active

Problem: Which inhibition is listed for `Oc1c(Br)cc(Br)cc1CNc1cc(C(F)(F)F)ccc1Cl` ?
Result: Active

* * *

Test system: Staphylococcus aureus
Assay: Antibacterial activity against methicillin-resistant Staphylococcus aureus assessed as bacterial growth inhibition after 24 hrs by CLSI protocol based broth microdilution assay
Format: functional
readout-type: MIC (µg/mL)
Give just the numeric value; µg/mL need not be written.

Some molecules with known MIC results, for comparison:
[[record]]
structure_notation = "Oc1ccc(Br)cc1CNc1cc(C(F)(F)F)ccc1F"
assayed_target = "Staphylococcus aureus"
measurement_units = "µg/mL"
measurement = 16

[[record]]
structure_notation = "Oc1c(Br)cc(Br)cc1CNc1cc(C(F)(F)F)ccc1F"
assayed_target = "Staphylococcus aureus"
measurement_units = "µg/mL"
measurement = 4


Proceeding to the next molecule to report its MIC.
Problem: Which MIC is listed for `Oc1ccc(Cl)cc1CNc1cc(C(F)(F)F)ccc1F` ?
Result: 32
